FYI, the data here is from ChEMBL document CHEMBL3596177.

Assay: Inhibition of Mycobacterium tuberculosis protein tyrosine phosphatase B expressed in Escherichia coli BL21/DE using pNPP substrate by spectrophotometry
test-readout: pIC50
Would you please state pIC50, meaning minus log10 of the concentration in mol/L, as a bare number?

input: Entry O=C(O)c1cc2sc(Nc3ccc(F)cc3)nc2cc1O needs its pIC50 filled in; supply it.
output: 4.19

input: Entry O=C(O)c1cc2sc(Nc3ccc(Cl)cc3)nc2cc1O needs its pIC50 filled in; supply it.
output: 4.89

input: Entry O=C(O)c1cc2sc(Nc3ccc([N+](=O)[O-])cc3)nc2cc1O needs its pIC50 filled in; supply it.
output: 4.30

input: Entry Cc1ccccc1Nc1nc2cc(O)c(C(=O)O)cc2s1 needs its pIC50 filled in; supply it.
output: 4.51

input: Entry Cc1cccc(Nc2nc3cc(O)c(C(=O)O)cc3s2)c1 needs its pIC50 filled in; supply it.
output: 4.82

input: Entry O=C(O)c1cc2sc(Nc3ccc(Cl)cc3Cl)nc2cc1O needs its pIC50 filled in; supply it.
output: 5.30

input: Entry O=C(O)c1cc2[nH]c(-c3ccccc3)nc2cc1O needs its pIC50 filled in; supply it.
output: 4.49

input: Entry O=C(O)c1cc2sc(Nc3cccc4ccccc34)nc2cc1O needs its pIC50 filled in; supply it.
output: 4.22

input: Entry O=C(O)c1cc2sc(Nc3ccccc3Cl)nc2cc1O needs its pIC50 filled in; supply it.
output: 4.52

input: Entry O=C(O)c1cc2nc(-c3ccccc3)oc2cc1O needs its pIC50 filled in; supply it.
output: 4.57

input: Entry O=C(O)c1cc2sc(Nc3cccc(Br)c3)nc2cc1O needs its pIC50 filled in; supply it.
output: 5.70

input: Entry O=C(O)c1ccc2nc(Nc3ccccc3)sc2c1O needs its pIC50 filled in; supply it.
output: 4.15

input: Entry CC(C)(C)c1ccc(Nc2nc3cc(O)c(C(=O)O)cc3s2)cc1 needs its pIC50 filled in; supply it.
output: 4.39

input: Entry O=C(O)c1cc2sc(Nc3ccccc3)nc2cc1O needs its pIC50 filled in; supply it.
output: 4.60

input: Entry O=C(O)c1cc2sc(Nc3cccc(Cl)c3)nc2cc1O needs its pIC50 filled in; supply it.
output: 4.68
